tested on: SF-268 CNS; assay: NCI tumour cell line growth inhibition, 48 h
Entries and their TGI values follow.
REPORTED ENDPOINT: TGI

ITEM SMILES | REPORTED ENDPOINT | RESULT
Cc1nc2nnc(CCCCCCCCc3nnc4nc(C)[nH]n34)n2[nH]1 | TGI | > 100 µM
COC(=O)c1sc(-n2cnc3cc(OC)c(OC)cc32)cc1OCc1ccccc1C(F)(F)F | TGI | > 25 µM
O=C(O)COc1c(Cl)cc(Cl)c(C(c2c(Cl)cc(Cl)c(OCC(=O)O)c2Cl)C(Cl)(Cl)Cl)c1Cl | TGI | > 100 µM

----------
system: HT29 colon; test: NCI tumour cell line growth inhibition, 48 h

ITEM SMILES | GI50
COc1cc(C(=O)/C=C/c2c[nH]c3ccccc23)cc(OC)c1OC | < 0.0146 µM
O=C(O)CCCCCNCc1cc2cc3c(cc2c2cc(OCc4ccccc4)ccc12)OCO3 | 1.73 µM
CNC(=O)c1sc(-n2cnc3cc(OC)c(OC)cc32)cc1OCc1ccccc1C(F)(F)F | > 25 µM

----------
test system: UACC-257 melanoma; test: NCI tumour cell line growth inhibition, 48 h

MOLECULE | GI50
O=C(CC1(O)C(=O)Nc2ccc(Cl)cc21)c1ccc(C(=O)NCC2CCC3(CC2)OOC2(CCCCC2)OO3)cc1 (stereo unspecified) | 6.48 µM
CCCCCCCCCC(=O)Oc1ccc(/C(=C(/C)c2ccccc2)c2ccc(OCCN3CCCC3)cc2)cc1 | 9.23 µM
COc1cccc(/C=C\C(=O)c2ccccc2)c1 | 17.7 µM
CC(C)(C)n1cc(-c2ccnc(NCCCNS(=O)(=O)c3cccc4ccccc34)c2)c(-c2cccc(O)c2)n1 | 2.07 µM
COc1cc(/C=N/NC(=O)c2cnn3c2NC(c2ccccc2)C3)ccc1OCc1ccccc1 (stereo unspecified) | 1.46 µM
NS(=O)(=O)c1cccc(Nc2cc(-c3ccc(F)cc3)[nH]n2)c1 | > 25 µM

----------
Entries and their TGI values follow.
system: HT29 colon; assay: NCI tumour cell line growth inhibition, 48 h

MOLECULE | TGI
CC(C)(c1ccc(C=O)o1)c1ccc(C(C)(C)c2ccc(C=O)o2)o1 | > 100 µM
c1c2c(cc3c1OCO3)-c1ncc3cc4c(cc3c1C2)OCO4 | > 100 µM
Cc1cc2c3ccccc3n3c2c2c1OC1(C)CCC(C2C1)C3(C)C (stereo unspecified) | > 25 µM
CC1CCc2c(C(=O)Nc3ncc(Cc4cccc([N+](=O)[O-])c4)s3)csc2C1 (stereo unspecified) | > 100 µM
NC1=Nc2ncccc2C(=O)NN1 | > 10 µM
CCCCCCNC(=O)CCN(C(=O)O)S(=O)(=O)c1ccc(NC(=O)c2ccccc2)cc1 | > 100 µM

----------
Entries and their TGI values follow.
test system: OVCAR-5 ovarian; test: NCI tumour cell line growth inhibition, 48 h

COMPOUND | TESTED TARGET | TGI
CCOc1c2c(cc3c1C(=O)c1c(OC)cccc1C3=O)C=C(OC)CC2 | OVCAR-5 ovarian | > 25 µM
O=C(CC1(O)C(=O)Nc2ccccc21)c1cccc(O)c1 (stereo not given) | OVCAR-5 ovarian | > 100 µM
C=CCN(C(C)=O)c1cc(OCc2ccccc2)c2c(c1)c(C)cn2S(=O)(=O)c1ccccc1 | OVCAR-5 ovarian | > 100 µM
Cc1ccc(NC(c2ccccc2)P(=O)(c2ccccc2)c2ccccc2)cc1 (stereo not given) | OVCAR-5 ovarian | > 100 µM
O=C(O)c1ccccc1Sc1ccc(C=C2NC(=S)N(c3ccccc3)C2=O)s1 | OVCAR-5 ovarian | > 100 µM

The measured values listed here are drawn from PubChem BioAssay (NCI).
